molecular target: HCV polymerase (NS5B570n-Con1) (Hepatitis C virus genotype 1b); construct: contains a 21 amino acid deletion at the C-terminus relative to the full-length HCV polymerase; 6-histidine (N); experiment: HCV NS5B RNA polymerase activity (incorporation of radiolabeled nucleotide into RNA)
REPORTED ENDPOINT: IC50

SMILES DATA	TEST TARGET	READOUT VALUE
CC(C)(C)c1cc(-c2ccc[nH]c2=O)c2[nH]c(=O)c(-c3ccccc3)cc2c1	HCV polymerase (NS5B570n-Con1) (Hepatitis C virus genotype 1b)	91 nM
Cn1c(=O)c(-c2ccccc2)cc2cc(C(C)(C)C)cc(-c3ccc[nH]c3=O)c21	HCV polymerase (NS5B570n-Con1) (Hepatitis C virus genotype 1b)	456 nM
Cn1c(=O)c(-c2ccc(O)cc2)cc2cc(C(C)(C)C)cc(-c3ccc[nH]c3=O)c21	HCV polymerase (NS5B570n-Con1) (Hepatitis C virus genotype 1b)	900 nM
Cn1c(=O)c(-c2ccc(NS(C)(=O)=O)cc2)cc2cc(C(C)(C)C)cc(-c3ccc[nH]c3=O)c21	HCV polymerase (NS5B570n-Con1) (Hepatitis C virus genotype 1b)	6 nM
